System: SNB-19 CNS
procedure_text: NCI tumour cell line growth inhibition, 48 h; in the data active means GI50 below about 0.43 µM; inactive means the rest
Lab note: assign the record to one of T for active, F for inactive

A selection of reference data follows.
INSERT INTO measurements (input_smiles, group) VALUES
  ('O=C1c2cccnc2-c2nc(-c3ccc(Cl)cc3)cc3c2c1nc1ccccc13', 'F'),
  ('COc1cc2oc(-c3ccc(O)cc3)c(OC)c(=O)c2c(O)c1OC', 'F'),
  ('C[C@@H]1Nc2cc(NC(=O)OCCF)nc(N)c2N=C1c1ccccc1', 'T');

API: the following record is the query input.
Input line: Test call, this molecule: `NS(=O)(=O)c1ccc(-c2ccc3c(NC(=O)C4CC4)n[nH]c3c2)cc1`
Output line: F

###

System: OVCAR-8 ovarian
procedure_text: NCI tumour cell line growth inhibition, 48 h
parameter_measured: TGI (µM)
Your answer should be a plain number; it is taken to be in µM.

Some solved entries appear below for comparison.
INSERT INTO results (input_smiles, test_result) VALUES
  ('COc1ccc(-c2nc3ccccn3c2/C=C/C(=O)c2cc(OC)c(OC)c(OC)c2)cc1OC', 11.1),
  ('COC1=C(OC)C(=O)C(Cc2c(C)nc3sccn23)=C(C)C1=O', 33.6),
  ('Cc1ccc(N=C/C=C(\Nc2ccc(C)cc2)c2ccc(Cl)cc2)cc1', 53.6);

Input line: Quickly give me recorded TGI for `CC(C)c1c(O)c(O)c2c(c1O)C(=O)C(O)=C1C(C)(C)CCC[C@@]12C`
Output line: 10.2

###

# TGI per record follows
System: EKVX NSCLC
procedure_text: NCI tumour cell line growth inhibition, 48 h

Some solved entries appear below for comparison.
INSERT INTO results (molecule, study_target, test_result) VALUES
  ('C=C(C)CCN[Si](c1ccccc1)(c1ccccc1)C(C)(C)C', 'EKVX NSCLC', '54.4 µM'),
  ('NNC(=S)N/N=C(/C(=O)Nc1ccc(Cl)c(Cl)c1)C(C1OC(=O)c2ccccc21)[N+](=O)[O-] (stereo unspecified)', 'EKVX NSCLC', '> 100 µM'),
  ('CC1=C(/C=C/Cl)CC(Cl)C(C)(Cl)C1 (stereo unspecified)', 'EKVX NSCLC', '> 100 µM'),
  ('C=CCCCCC/C=C\[C@@H](O)C#CC#C/C=C/CO', 'EKVX NSCLC', '> 100 µM'),
  ('Cc1ccc(S(=O)(=O)N/N=C2/CCCOC2)cc1', 'EKVX NSCLC', '> 100 µM');

--- query ---
Input line: // fetch TGI; item: `CCOC(=O)C1CCN(S(=O)(=O)/N=C2/NC(=O)NC2=C(Cl)Cl)CC1` ; system: EKVX NSCLC
Output line: 4.79 µM

###

Tested on: RXF 393 renal
procedure_text: NCI tumour cell line growth inhibition, 48 h
parameter_measured: log10 of TGI (log10 of the value in µM)
// units: µM (pre-log); metric: TGI; scale: log10

INSERT INTO measurements (compound, parameter_measured, test_result) VALUES
  ('COC(=O)C(Cc1nc2ccccc2[nH]c1=O)C(NO)C(=O)Nc1c(Cl)cc([N+](=O)[O-])cc1Cl (stereo unspecified)', 'log10 of TGI', 1.70),
  ('C=C(C)[C@@H]1CC[C@]2(CO)CC[C@]3(C)[C@H](CC[C@@H]4[C@@]5(C)C=C(C#N)C(=O)C(C)(C)[C@@H]5CC[C@]43C)[C@@H]12', 'log10 of TGI', 0.44),
  ('CCOC(=O)c1ccc(N[C@@H]2c3cc4c(cc3C(c3cc(OC)c(O)c(OC)c3)[C@H]3C(=O)OCC32)OCO4)cc1O (stereo partly specified)', 'log10 of TGI', 0.83);

Input line: Quickly give me recorded log10 of TGI for `CN(C)CCNc1ccc(CO)c2oc3ccc(O)cc3c(=O)c12`
Output line: 1.45

Input line: Quickly give me recorded log10 of TGI for `COc1cc(OC)c(C(=O)/C=C/c2cccc(C(F)(F)F)c2)c(OC)c1`
Output line: 0.35

Input line: Quickly give me recorded log10 of TGI for `Cc1cc(C)c(NC(=O)c2sc3nc4c(cc3c2N)C(=O)CCC4)c(C)c1`
Output line: 0.65

Input line: Quickly give me recorded log10 of TGI for `NC(=O)c1cc(Cl)ccc1NC(=O)/C=C/c1ccccc1`
Output line: 0.81

Input line: Quickly give me recorded log10 of TGI for `COc1c(C(=O)/C=C/c2ccccc2)c(O)cc2occc12`
Output line: 1.19

Input line: Quickly give me recorded log10 of TGI for `C=C1C(=O)O[C@H]2[C@H]1CC/C(COC(=O)NCCCCNC(=O)OC/C1=C/CC[C@@]3(C)O[C@H]3[C@H]3OC(=O)C(=C)[C@@H]3CC1)=C\CC[C@@]1(C)O[C@@H]21`
Output line: 0.53

###

System: CCRF-CEM leukemia
procedure_text: NCI tumour cell line growth inhibition, 48 h
parameter_measured: GI50

Some solved entries appear below for comparison.
INSERT INTO assay_data (input_smiles, study_target, test_result) VALUES
  ('O=C1/C(=C(/c2ccccc2)N2CCOCC2)Cc2ccccc21', 'CCRF-CEM leukemia', '0.467 µM'),
  ('COc1ccc(C[N+](C)(C)N)cc1OC', 'CCRF-CEM leukemia', '> 100 µM'),
  ('COc1ccc2[nH]c3c4[nH]c5ccc(OC)cc5c4c4c(c3c2c1)C(=O)NC4=O', 'CCRF-CEM leukemia', '0.757 µM'),
  ('CC(C)c1ccc(-c2cc(-c3cn[nH]c3-c3ccccn3)ccn2)cc1', 'CCRF-CEM leukemia', '10.8 µM');

Input line: Quickly give me recorded GI50 for `COc1ccccc1CNCCCN1C(=O)c2ccc3c4c(ccc(c24)C1=O)C(=O)N(CCCNCCNCCCN)C3=O`
Output line: 3.17 µM

###

# TGI per record follows
Tested on: NCI-H226 lung
procedure_text: NCI tumour cell line growth inhibition, 48 h
Your answer should be a plain number; it is taken to be in µM.

Some solved entries appear below for comparison.
INSERT INTO results (input_smiles, parameter_measured, test_result) VALUES
  ('C=C(C)[C@@H]1CC[C@]2(CO)CC[C@]3(C)[C@H](CC[C@@H]4[C@@]5(C)C=C(C#N)C(=O)C(C)(C)[C@@H]5CC[C@]43C)[C@@H]12', 'TGI', 5.49),
  ('CCN(CC)CCSc1c2cc(OC)ccc2nc2ccc(OC)cc12', 'TGI', 53.8),
  ('CN(C)CCCN=c1c2ccccc2n(O)c2ccccc12', 'TGI', 72.7);

--- query ---
Input line: Quickly give me recorded TGI for `COc1ccc(-c2cc(-c3cc(C)cc(Br)c3O)no2)cc1`
Output line: 42.4

###

# GI50 per record follows
Tested on: A498 renal
procedure_text: NCI tumour cell line growth inhibition, 48 h

Some solved entries appear below for comparison.
INSERT INTO assay_data (input_smiles, parameter_measured, test_result) VALUES
  ('COc1ccc(C(=O)c2cc(OC)c(OC)c(OC)c2)cc1/C=C/C(=O)c1ccc(F)cc1', 'GI50', '14 µM'),
  ('COc1cc(Cc2nccc3cc(OC)c(OC)cc23)c(C(C)=O)cc1OC', 'GI50', '204 µM'),
  ('CC1(C)C(=O)/C(=C\c2cccnc2)C[C@]2(C)[C@H]3CC[C@@H]4[C@H]5[C@H](C(=O)/C=C/c6cccnc6)CC[C@]5(C(=O)O)CC[C@@]4(C)[C@]3(C)CC[C@@H]12', 'GI50', '1.92 µM'),
  ('c1ccc(Sc2ccc(Cc3nc4cc5ccccc5cc4[nH]3)cc2)cc1', 'GI50', '21.5 µM'),
  ('C=C1C(=O)O[C@H]2[C@H]1CC/C(COC(=O)NCCCCNC(=O)OC/C1=C/CC[C@@]3(C)O[C@H]3[C@H]3OC(=O)C(=C)[C@@H]3CC1)=C\CC[C@@]1(C)O[C@@H]21', 'GI50', '6.36 µM'),
  ('COc1ccccc1CNCCCN1C(=O)c2ccc3c4c(ccc(c24)C1=O)C(=O)N(CCCNCCNCCCN)C3=O', 'GI50', '5.01 µM');

Input line: Quickly give me recorded GI50 for `COc1cc2c(cc1OCCCCC(=O)Nc1cc3c4ccccc4ccc3c3ccccc13)N=C[C@@H]1CCCN1C2=O`
Output line: 2.9 µM

###

System: SF-268 CNS
procedure_text: NCI tumour cell line growth inhibition, 48 h
parameter_measured: TGI

Some solved entries appear below for comparison.
INSERT INTO measurements (molecule, test_result) VALUES
  ('COC(=O)Nc1nc2ccc(C3(c4ccc(F)cc4)OCCO3)cc2[nH]1', '> 100 µM'),
  ('c1cnn(CN(Cn2cccn2)Cn2cccn2)c1', '> 100 µM'),
  ('CC(C)c1c(O)c(O)c2c(c1O)C(=O)C(O)=C1C(C)(C)CCC[C@@]12C', '20 µM'),
  ('CC1CC2=C(S(=O)(=O)c3ccccc3)CC(S(=O)(=O)c3ccccc3)(S(=O)(=O)c3ccccc3)CC21 (stereo unspecified)', '> 100 µM'),
  ('CN(Cc1ccccc1)C(=O)c1ccccc1C(=O)O', '> 100 µM');

Input line: Quickly give me recorded TGI for `CC(=O)Nc1ccc(/C=C/c2ccc(NC(=O)Nc3ccc(/C=C/c4ccc(NC(C)=O)cc4S(=O)(=O)O)c(S(=O)(=O)O)c3)cc2S(=O)(=O)O)c(S(=O)(=O)O)c1`
Output line: > 100 µM

Input line: Quickly give me recorded TGI for `COc1cc2c(cc1OCCCCC(=O)Nc1cc3c4ccccc4ccc3c3ccccc13)N=C[C@@H]1CCCN1C2=O`
Output line: 15 µM

Input line: Quickly give me recorded TGI for CCOC1=NC(O)c2cccn2-c2sccc21 (stereo unspecified)
Output line: > 100 µM

Input line: Quickly give me recorded TGI for CC1CCCCNC1=S (stereo unspecified)
Output line: > 10 µM

Input line: Quickly give me recorded TGI for `COC(=O)C12CC3CC(CC(C(=O)O)(C3)C1)C2`
Output line: > 100 µM

Input line: Quickly give me recorded TGI for `CC(=O)Oc1ccc2cc(-c3ccccc3OC(C)=O)c(=O)oc2c1`
Output line: > 100 µM

Input line: Quickly give me recorded TGI for `Cc1cc(N(CCC#N)CCC#N)ccc1/C=C(\NC(=O)/C=C/c1ccccc1)C(N)=O`
Output line: > 100 µM

Input line: Quickly give me recorded TGI for `COc1cc(OC)c(C(=O)/C=C/c2cccc(C(F)(F)F)c2)c(OC)c1`
Output line: 6.13 µM

Input line: Quickly give me recorded TGI for CCOC(=O)CC(C)C1(C(=O)OCC)CCCCC1=O (stereo unspecified)
Output line: > 100 µM

Input line: Quickly give me recorded TGI for `Cc1ccc([N+](=O)[O-])c2c(NCCC[N+](C)(C)[O-])c3ccccc3nc12`
Output line: 24.9 µM

Input line: Quickly give me recorded TGI for `COC(=O)Nc1nc2ccc(S(=O)(=O)SC)cc2[nH]1`
Output line: > 100 µM
